Experiment: Cannabidiol solubility in neat solvents and mixtures, isooctane solubility curve
Assay type: physicochemical
Settings: EtOH, organic solvent or mixture; read-out: Solubility at RT
valueKind: solubility

Quickly give me recorded solubility for C=C(C)[C@@H]1CCC(C)=C[C@H]1c1c(O)cc(CCCCC)cc1O
> 100 mg/mL

====

Assay: Quantitative thermodynamic solubility determination at ambient temperature, evaporated solids analyzed by XRPD
Format: physicochemical
Details: thermodynamic from solid; Water, ambient temperature
valueKind: solubility

Quote solubility reported for C=C(C)[C@@H]1CCC(C)=C[C@H]1c1c(O)cc(CCCCC)cc1O [crude cannabidiol, cannabidiol] please.
< 0.13 mg/mL

====

Test: Quantitative thermodynamic solubility determination at ambient temperature, evaporated solids analyzed by XRPD
Assay type: physicochemical
Conditions: organic solvent or mixture, thermodynamic from solid; Ethyl Acetate, ambient temperature
valueKind: solubility

Report measured solubility; entry is C=C(C)[C@@H]1CCC(C)=C[C@H]1c1c(O)cc(CCCCC)cc1O
> 100 mg/mL

====

Experiment: Cannabidiol solubility in neat solvents and mixtures, isooctane solubility curve
Assay type: physicochemical
Conditions: CIP 200, aqueous with cosolvent or surfactant or cyclodextrin; read-out: Solubility at RT
valueKind: solubility

In one line, give reported solubility of the entry C=C(C)[C@@H]1CCC(C)=C[C@H]1c1c(O)cc(CCCCC)cc1O [CBD] .
< 1000 µg/mL

====

Assay: Cannabidiol solubility in neat solvents and mixtures, isooctane solubility curve
Format: physicochemical
Conditions: methylcyclohexane, organic solvent or mixture; read-out: Solubility at RT
valueKind: solubility

Please supply the value of reported solubility for the item C=C(C)[C@@H]1CCC(C)=C[C@H]1c1c(O)cc(CCCCC)cc1O
> 100 mg/mL

====

Assay: Quantitative thermodynamic solubility determination at ambient temperature, evaporated solids analyzed by XRPD
Format: physicochemical
Conditions: organic solvent or mixture, thermodynamic from solid; 1,2-Dimethoxyethane, ambient temperature
valueKind: solubility

Could you please provide reported solubility for C=C(C)[C@@H]1CCC(C)=C[C@H]1c1c(O)cc(CCCCC)cc1O [crude cannabidiol, cannabidiol] ? Thanks!
> 100 mg/mL

====

Experiment: Quantitative thermodynamic solubility determination at ambient temperature, evaporated solids analyzed by XRPD
Format: physicochemical
Conditions: organic solvent or mixture, thermodynamic from solid; Anisole, ambient temperature
valueKind: solubility

Give the measured solubility for C=C(C)[C@@H]1CCC(C)=C[C@H]1c1c(O)cc(CCCCC)cc1O
> 100 mg/mL

====

Assay: Quantitative thermodynamic solubility determination at ambient temperature, evaporated solids analyzed by XRPD
Format: physicochemical
Conditions: organic solvent or mixture, thermodynamic from solid; Dichloromethane, ambient temperature
valueKind: solubility

// Input: C=C(C)[C@@H]1CCC(C)=C[C@H]1c1c(O)cc(CCCCC)cc1O . Output its solubility only.
> 100 mg/mL

====

Experiment: Quantitative thermodynamic solubility determination at ambient temperature, evaporated solids analyzed by XRPD
Assay type: physicochemical
Conditions: organic solvent or mixture, thermodynamic from solid; 1-Propanol, ambient temperature
valueKind: solubility

Recall and state the measured solubility for C=C(C)[C@@H]1CCC(C)=C[C@H]1c1c(O)cc(CCCCC)cc1O [crude cannabidiol, cannabidiol] .
> 100 mg/mL

====

Assay: Quantitative thermodynamic solubility determination at ambient temperature, evaporated solids analyzed by XRPD
Assay type: physicochemical
Settings: organic solvent or mixture, thermodynamic from solid; Acetone, ambient temperature
valueKind: solubility

Please supply the value of reported solubility for the item C=C(C)[C@@H]1CCC(C)=C[C@H]1c1c(O)cc(CCCCC)cc1O [crude cannabidiol, cannabidiol]
> 100 mg/mL

====

Experiment: Cannabidiol solubility in neat solvents and mixtures, isooctane solubility curve
Format: physicochemical
Settings: IPA, organic solvent or mixture; read-out: Solubility at RT
Description: Isooctane was selected as the final crystallization solvent due the low solubility and similar properties to heptane, i.e., low viscosity and boiling point relative to other higher hydrocarbons (Table 33). Based on the solubility and desire to maximize yield, an isooctane volume of 4.0 L/kg was selected as an appropriate crystallization concentration. Prior to crystallization, it was desired to fully dissolve the CBD in isooctane and filter the process stream. […]
valueKind: solubility

Give the reported solubility for this compound. C=C(C)[C@@H]1CCC(C)=C[C@H]1c1c(O)cc(CCCCC)cc1O
> 100 mg/mL

====

Experiment: Quantitative thermodynamic solubility determination at ambient temperature, evaporated solids analyzed by XRPD
Assay type: physicochemical
Conditions: organic solvent or mixture, thermodynamic from solid; 2-Butanone, ambient temperature
valueKind: solubility

Give the reported value of solubility for this record: C=C(C)[C@@H]1CCC(C)=C[C@H]1c1c(O)cc(CCCCC)cc1O
> 100 mg/mL

====

Experiment: Quantitative thermodynamic solubility determination at ambient temperature, evaporated solids analyzed by XRPD
Format: physicochemical
Conditions: organic solvent or mixture, thermodynamic from solid; p-Xylene, ambient temperature
valueKind: solubility

Give solubility for the following molecule: C=C(C)[C@@H]1CCC(C)=C[C@H]1c1c(O)cc(CCCCC)cc1O
> 100 mg/mL

====

Test: Cannabidiol solubility in neat solvents and mixtures, isooctane solubility curve
Type: physicochemical
Conditions: 30/70 water/IPA, organic solvent or mixture; read-out: Solubility at RT
valueKind: solubility

Fill in reported solubility for this entry: C=C(C)[C@@H]1CCC(C)=C[C@H]1c1c(O)cc(CCCCC)cc1O
> 20 mg/mL

====

Assay: Cannabidiol solubility in neat solvents and mixtures, isooctane solubility curve
Format: physicochemical
Settings: p-xylene, organic solvent or mixture; read-out: Solubility at RT
valueKind: solubility

Answer with reported solubility of C=C(C)[C@@H]1CCC(C)=C[C@H]1c1c(O)cc(CCCCC)cc1O [CBD]
> 100 mg/mL

====

Assay: Cannabidiol solubility in neat solvents and mixtures, isooctane solubility curve
Assay type: physicochemical
Conditions: diethyl ether, organic solvent or mixture; read-out: Solubility at RT
valueKind: solubility

Query solubility for C=C(C)[C@@H]1CCC(C)=C[C@H]1c1c(O)cc(CCCCC)cc1O
> 100 mg/mL

====

Test: Quantitative thermodynamic solubility determination at ambient temperature, evaporated solids analyzed by XRPD
Format: physicochemical
Details: organic solvent or mixture, thermodynamic from solid; Ethanol, ambient temperature
valueKind: solubility

State, in one line, measured solubility of C=C(C)[C@@H]1CCC(C)=C[C@H]1c1c(O)cc(CCCCC)cc1O [crude cannabidiol, cannabidiol]
> 100 mg/mL

====

Assay: Cannabidiol solubility in neat solvents and mixtures, isooctane solubility curve
Format: physicochemical
Conditions: ACN, organic solvent or mixture; read-out: Solubility at RT
valueKind: solubility

Fill in reported solubility for this entry: C=C(C)[C@@H]1CCC(C)=C[C@H]1c1c(O)cc(CCCCC)cc1O [CBD]
> 100 mg/mL

====

Assay: Cannabidiol solubility in neat solvents and mixtures, isooctane solubility curve
Format: physicochemical
Conditions: ethyl formate, organic solvent or mixture; read-out: Solubility at RT
valueKind: solubility

Return reported solubility. Input compound: C=C(C)[C@@H]1CCC(C)=C[C@H]1c1c(O)cc(CCCCC)cc1O
> 100 mg/mL

====

Assay: Cannabidiol solubility in neat solvents and mixtures, isooctane solubility curve
Type: physicochemical
Conditions: DCM, organic solvent or mixture; read-out: Solubility at RT
valueKind: solubility

Note solubility for the compound shown: C=C(C)[C@@H]1CCC(C)=C[C@H]1c1c(O)cc(CCCCC)cc1O
> 100 mg/mL

====

Experiment: Cannabidiol solubility in neat solvents and mixtures, isooctane solubility curve
Assay type: physicochemical
Conditions: cyclohexane, organic solvent or mixture; read-out: Solubility at RT
Source text: Isooctane was selected as the final crystallization solvent due the low solubility and similar properties to heptane, i.e., low viscosity and boiling point relative to other higher hydrocarbons (Table 33). Based on the solubility and desire to maximize yield, an isooctane volume of 4.0 L/kg was selected as an appropriate crystallization concentration. Prior to crystallization, it was desired to fully dissolve the CBD in isooctane and filter the process stream. […]
valueKind: solubility

Could you please provide reported solubility for C=C(C)[C@@H]1CCC(C)=C[C@H]1c1c(O)cc(CCCCC)cc1O [CBD] ? Thanks!
> 100 mg/mL

====

Experiment: Cannabidiol solubility in neat solvents and mixtures, isooctane solubility curve
Assay type: physicochemical
Details: 2-butanone, organic solvent or mixture; read-out: Solubility at RT
Description: Isooctane was selected as the final crystallization solvent due the low solubility and similar properties to heptane, i.e., low viscosity and boiling point relative to other higher hydrocarbons (Table 33). Based on the solubility and desire to maximize yield, an isooctane volume of 4.0 L/kg was selected as an appropriate crystallization concentration. Prior to crystallization, it was desired to fully dissolve the CBD in isooctane and filter the process stream. […]
valueKind: solubility

For the compound C=C(C)[C@@H]1CCC(C)=C[C@H]1c1c(O)cc(CCCCC)cc1O , give its reported solubility.
> 100 mg/mL

====

Assay: Quantitative thermodynamic solubility determination at ambient temperature, evaporated solids analyzed by XRPD
Type: physicochemical
Conditions: organic solvent or mixture, thermodynamic from solid; Ethyl Formate, ambient temperature
valueKind: solubility

Return solubility (reported value) for this molecule: C=C(C)[C@@H]1CCC(C)=C[C@H]1c1c(O)cc(CCCCC)cc1O [crude cannabidiol, cannabidiol]
> 100 mg/mL
